System: ES-2 ovarian tumor cells
Assay: Viability of ovarian tumor cells after siRNA transfection (trypan blue count)
Assay type: cell-based, human
Settings: 50 nM siRNA, DharmaFECT, 96 hours, vs control siRNA
Assay Metric: Response to siRNA (% growth inhibition) (%)
Answers are plain numbers, in %.

// solved cases for Response to siRNA (% growth inhibition) follow
Substance	Reported Measurement
siEVI1-992: siRNA duplex; sense 5′-ggacaaauguucagcacuauu-3′ SEQ ID NO: 11, antisense SEQ ID NO: 12 (sense GGACAAAUGUUCAGCACUAUU; antisense UAGUGCUGAACAUUUGUCCUU; listed as RNA, chemistry not given here)	54
siEVI1-256: siRNA duplex; sense 5′-ccagauaaaugaucagauauu-3′ SEQ ID NO: 7, antisense SEQ ID NO: 8 (sense CCAGAUAAAUGAUCAGAUAUU; antisense UAUCUGAUCAUUUAUCUGGUU; listed as RNA, chemistry not given here)	0
siEVI1-2994: siRNA duplex; sense 5′-augaagaaguugaagaugauu-3′ SEQ ID NO: 15, antisense SEQ ID NO: 16 (sense AUGAAGAAGUUGAAGAUGAUU; antisense UCAUCUUCAACUUCUUCAUUU; listed as RNA, chemistry not given here)	54
siEVI1-2910: siRNA duplex; sense 5′-ggaauguggaggagagaauuu-3′ SEQ ID NO: 13, antisense SEQ ID NO: 14 (sense GGAAUGUGGAGGAGAGAAUUU; antisense AUUCUCUCCUCCACAUUCCUU; listed as RNA, chemistry not given here)	92

--- query ---
Give the measured Response to siRNA (% growth inhibition) for siEVI1-979: siRNA duplex; sense 5′-gugcaaagacuguggacaauu-3′ SEQ ID NO: 9, antisense SEQ ID NO: 10 (sense GUGCAAAGACUGUGGACAAUU; antisense UUGUCCACAGUCUUUGCACUU; listed as RNA, chemistry not given here)
63

---

Could you please report measured Response to siRNA (% growth inhibition) for the items listed next?
Test system: PC3 prostate tumor cells
Assay: Viability of prostate tumor cells after siRNA transfection (trypan blue count)
Format: cell-based, human
Settings: 50 nM siRNA, DharmaFECT, 96 hours, vs control siRNA
Protocol: Each of the five siRNA duplexes presented in Table 2 were introduced into cultures of prostate tumor cells at a concentration of 50 nM. Briefly, fifty to one hundred thousand tumor cells were added to each well of a 6 well plate and allowed to attach to the surface and grow for 18 hours in DMEM medium containing 10% fetal bovine serum. […] The viability of the prostate tumor cells was assessed by counting cells with a hemocytometer following trypan blue exclusion staining. […]
Numbers only, in %.

Example cases with answers are listed next.
Substance	Response to siRNA (% growth inhibition) / %
siEVI1-992: siRNA duplex; sense 5′-ggacaaauguucagcacuauu-3′ SEQ ID NO: 11, antisense SEQ ID NO: 12 (sense GGACAAAUGUUCAGCACUAUU; antisense UAGUGCUGAACAUUUGUCCUU; listed as RNA, chemistry not given here)	35
siEVI1-2910: siRNA duplex; sense 5′-ggaauguggaggagagaauuu-3′ SEQ ID NO: 13, antisense SEQ ID NO: 14 (sense GGAAUGUGGAGGAGAGAAUUU; antisense AUUCUCUCCUCCACAUUCCUU; listed as RNA, chemistry not given here)	53
siEVI1-979: siRNA duplex; sense 5′-gugcaaagacuguggacaauu-3′ SEQ ID NO: 9, antisense SEQ ID NO: 10 (sense GUGCAAAGACUGUGGACAAUU; antisense UUGUCCACAGUCUUUGCACUU; listed as RNA, chemistry not given here)	8

Would you mind giving Response to siRNA (% growth inhibition) for every substance in the list below?
1. siEVI1-256: siRNA duplex; sense 5′-ccagauaaaugaucagauauu-3′ SEQ ID NO: 7, antisense SEQ ID NO: 8 (sense CCAGAUAAAUGAUCAGAUAUU; antisense UAUCUGAUCAUUUAUCUGGUU; listed as RNA, chemistry not given here)
2. siEVI1-2994: siRNA duplex; sense 5′-augaagaaguugaagaugauu-3′ SEQ ID NO: 15, antisense SEQ ID NO: 16 (sense AUGAAGAAGUUGAAGAUGAUU; antisense UCAUCUUCAACUUCUUCAUUU; listed as RNA, chemistry not given here)

[23, 25]
